Sequence of the target: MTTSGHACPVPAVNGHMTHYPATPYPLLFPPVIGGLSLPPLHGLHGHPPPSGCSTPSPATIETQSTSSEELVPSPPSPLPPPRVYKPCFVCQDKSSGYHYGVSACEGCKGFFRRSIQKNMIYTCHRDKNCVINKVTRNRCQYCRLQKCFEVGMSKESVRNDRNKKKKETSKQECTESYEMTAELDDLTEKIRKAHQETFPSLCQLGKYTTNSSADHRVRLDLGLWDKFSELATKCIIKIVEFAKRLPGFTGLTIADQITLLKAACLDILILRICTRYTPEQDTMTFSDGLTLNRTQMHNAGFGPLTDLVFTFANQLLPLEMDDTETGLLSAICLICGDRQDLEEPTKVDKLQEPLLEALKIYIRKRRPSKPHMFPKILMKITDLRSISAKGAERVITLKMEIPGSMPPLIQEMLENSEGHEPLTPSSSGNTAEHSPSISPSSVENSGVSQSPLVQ
metric-name: Ki (µM)

Solved entries (count: 3):
compound	metric-name	reported-result
Cc1ccc(C2=CC(C)(C)c3cc(C(/C=C/c4ccc(C(=O)O)cc4F)=N\O)ccc32)cc1 [Compound 18b]	Ki	10
Cc1ccc(C2=CC(C)(C)c3cc(C(/C=C/c4ccc(C(=O)O)cc4)=N/O)ccc32)cc1 [Compound 16a]	Ki	10
Cc1ccc(C2=CC(C)(C)c3cc(C(/C=C/c4ccc(C(=O)O)cc4F)=N/O)ccc32)cc1 [Compound 18a]	Ki	10

a: Cc1ccc(C2=CCC(C)(C)c3cc(C(/C=C/c4ccc(C(=O)O)cc4)=NO)ccc32)cc1 (racemic)
b: Cc1ccc(C2=CC(C)(C)c3cc(C(/C=C/c4ccc(C(=O)O)cc4)=N\O)ccc32)cc1 [Compound 16b]
c: Cc1ccc(C2=CCC(C)(C)c3cc(C(/C=C/c4ccc(C(=O)O)cc4)=N/O)ccc32)cc1
Request: Order field: Ki | Direction: descending (largest first) I would appreciate it if you listed the labels in the requested order.
Result: b, c, a
(b: 10 µM, c: 5 µM, a: 1.3 µM)
